- assayedSystem: ACE2 (human, UniProt Q9BYF1 18-740)
- Sequence (Q9BYF1 18-740 limits assumed): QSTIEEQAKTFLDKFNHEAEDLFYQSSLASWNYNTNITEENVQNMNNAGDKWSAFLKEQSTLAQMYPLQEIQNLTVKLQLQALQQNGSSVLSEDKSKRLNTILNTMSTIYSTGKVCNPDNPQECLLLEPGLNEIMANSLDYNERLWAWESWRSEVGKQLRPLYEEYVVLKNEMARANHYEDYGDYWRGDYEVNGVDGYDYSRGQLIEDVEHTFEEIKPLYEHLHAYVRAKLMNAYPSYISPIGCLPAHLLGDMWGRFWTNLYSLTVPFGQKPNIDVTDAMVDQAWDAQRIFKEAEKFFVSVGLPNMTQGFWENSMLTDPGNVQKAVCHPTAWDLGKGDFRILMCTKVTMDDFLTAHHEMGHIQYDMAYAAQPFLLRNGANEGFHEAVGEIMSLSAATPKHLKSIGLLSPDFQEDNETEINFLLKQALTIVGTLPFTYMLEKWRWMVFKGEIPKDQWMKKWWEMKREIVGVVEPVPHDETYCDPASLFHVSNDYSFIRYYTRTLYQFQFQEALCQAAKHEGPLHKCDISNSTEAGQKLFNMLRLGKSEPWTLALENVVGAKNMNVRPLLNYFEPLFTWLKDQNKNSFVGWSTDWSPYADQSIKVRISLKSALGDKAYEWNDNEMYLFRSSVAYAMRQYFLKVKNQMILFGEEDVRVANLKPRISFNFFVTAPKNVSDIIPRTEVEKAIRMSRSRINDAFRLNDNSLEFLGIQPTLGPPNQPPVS
propertyMeasured: kon
State the result as a value with its unit after it.

* ACE2 variant antibody 4-33 (VHH) VHH: EVQLVESGGGLVQPGGSLRLSCAASGFTFSRHDMGWFRQAPGKEREFVAGINWESGSTNYADSVKGRFTISADNSKNTAYLQMNSLKPEDTAVYYCAADRGVYGGRWYRTSQYTWGQGTLVTVSS | 229000 M⁻¹ s⁻¹
* ACE2 variant antibody 4-49 (VHH) VHH: EVQLVESGGGLVQPGGSLRLSCAASGRTFGDYIMGWFRQAPGKERESVAAINWSAGYTAYADSVKGRFTISADNSKNTAYLQMNSLKPEDTAVYYCARASPNTGWHFDHWGQGTLVTVSS | 2.91e+06 M⁻¹ s⁻¹

Shift focus to the following entry.
### Prompt # kon lookup, item ACE2 variant antibody 4-64 (VHH) VHH: EVQLVESGGGLVQPGGSLRLSCAASGRTFGDYIMGWFRQAPGKERESVAAINWSAGYTAYADSVKGRFTISADNSKNTAYLQMNSLKPEDTAVYYCATASPNTGWHFDHWGQGTLVTVSS
### Response 2.9e+06 M⁻¹ s⁻¹
